Molecular target: GTPase HRas (Homo sapiens)
Experiment: blockade of GTP loading onto mutant Ras – biochemical, activated mutant, multiplex bead flow cytometry, dose response (AID 1341);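 note: GST-tagged constitutively activated Ras mutant immobilized on beads and multiplexed with other GTPases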
Settings: bead-based flow cytometry, Bodipy-FL-GTP binding; series mostly up to 100 µM
Potency and affinity values are given separately. The source made the active and inactive calls.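 Rule for the calls: active = dose-response curve with midpoint inside the tested range, moderate steepness, significant amplitude and little compound fluorescence or bead-attachment interference; inactive = the rest.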
Measured Property: outcome

In the examples that follow, each entry is paired with its recorded outcome.
Item under review: COc1cccc(CNCc2sc(C(=O)O)cc2C)c1OC . Reported outcome? inactive

What measured outcome goes with COc1cccc(C(=O)O)c1OCc1ccccc1Br ? inactive

outcome lookup needed for Cc1cc(NS(=O)(=O)c2ccc(Nc3nc(-c4sc(N)nc4C)cs3)cc2)no1 , thanks. inactive

What measured outcome goes with Cc1cccc(OCCSc2nc3ccccc3n2CC(=O)O)c1C ? inactive

Provide outcome values for the following items, in order.
1. CCc1ccc(NS(=O)(=O)c2ccc3[nH]cc(C(=O)N4CCc5ccccc54)c(=O)c3c2)cc1
2. C=CCc1cc(/C=C/c2nc(O)c([N+](=O)[O-])c(=O)[nH]2)cc(OC)c1O

1. inactive
2. inactive

Reference source: PubChem BioAssay
